- experiment summary: qHTS assay to identify small molecule agonists of the vitamin D receptor (VDR) signaling pathway - cell viability counter screen (AID 743224); also: nearly all actives have a fitted effect of over 50% in size
- test conditions: VDR-bla HEK293T viability, CellTiter-Glo luminescence, 16 h; series mostly up to 62.6 µM
Records with an inconclusive call do not appear. Calls of active or inactive are those of the source. Calls follow the shape of the dose curve; as a rule, active = well fitted cell-killing curve with a large enough effect in the repeat runs; inconclusive = weak or mixed curves, or effect the other way; inactive = no such curve, though single readings can be large or run the other way.
Please state which outcome applies, choosing from active, inactive

* O=C(O)C1(C(=O)Nc2ccc(Cl)cc2Cl)CC1 | inactive
* CCCCCCCCCc1ccc(OCCOCCO)cc1 | active
* O=[N+]([O-])c1ccc2[nH]ncc2c1 | inactive

Hi, sorry to bother you, what did the test record for CC(=O)c1ccc2c(c1)N(CCCN(C)C)c1ccccc1S2 ? inactive

What outcome does the record of this test show for C#C[C@]1(O)CC[C@H]2[C@@H]3CCc4cc(OC5CCCC5)ccc4[C@H]3CC[C@@]21C ? inactive

Dear colleague, could you share the recorded outcome for CC(CSC(=O)c1ccccc1)C(=O)N1C[C@@H](Sc2ccccc2)C[C@H]1C(=O)O (stereo not given in full) when you have a moment? inactive

Kindly provide the recorded test outcome for the following compound: CCC(=O)O[C@]1(C(=O)CCl)[C@@H](C)C[C@H]2[C@@H]3CCC4=CC(=O)C=C[C@]4(C)[C@@]3(F)[C@@H](O)C[C@@]21C inactive

GET /call?item= CCCOC(C(=O)OC1CCN(C)CC1)(c1ccccc1)c1ccccc1 returns the recorded outcome of this test. inactive

Assay outcome for CO[C@@H]1[C@H](OC(=O)/C=C/C=C/C=C/C=C/C(=O)O)CC[C@]2(CO2)[C@H]1[C@@]1(C)O[C@@H]1CC=C(C)C : what was it? inactive

Recorded call for NCc1ccccc1Sc1ccccc1CO ? inactive
